# system_name: bovine trypsin (bovine, UniProt P00760)
# protocol_summary: GPK-AMC enzyme inhibition assay, Dixon plot, bovine trypsin
result_type: Ki (nM)
Your answer is read as nM, so omit the unit and give the number.

Lab book: Ki of C-terminal domain of SLPI (amino acids 50-107) (other) PVDTPNPTRRKPGKCPVTYGQCLMLNPPNFCEMDGQCKRDLKCCMGMCGKSCVSPVKA noted as 130
